- Tested on: 556581-035-R-J1-PDC complex spheroid viability;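 further: spheroids exposed to agents for seven days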
- Assay Info: Anticancer human tumor 556581-035-R-J1-PDC patient-derived ovarian carcinoma cell line growth inhibition
- Experimental Setup: curve of first compound; second compound 0.1 µM
For each of the compounds below, state its pIC50.
Numbers only, as −log10 of the molar value.

{"columns": ["Compound", "Readout Value"],
 "data": [
  ["Nc1ccn(C2OC(CO)C(O)C2(F)F)c(=O)n1 (stereo not drawn) + NC1CCC(NC2CC2c2ccccc2)CC1", 8.61]
]}

Here is the next item to consider.
Problem: // returns reported pIC50 for input CCN(c1cc(-c2ccc(CN3CCOCC3)cc2)cc(C(=O)NCc2c(C)cc(C)[nH]c2=O)c1C)C1CCOCC1 + NC1CCC(NC2CC2c2ccccc2)CC1
Result: 5.77
